Biological target: T1, APC7099-AA
T1 chain: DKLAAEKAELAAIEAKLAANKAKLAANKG
Experiment: two-hybrid library CCmax;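 further: natural log of median RNA to DNA barcode read ratio; higher means stronger binding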
Conditions: mean of both orientations
Listing: interaction score of selected binders
Could you keep your reply to the number by itself?

binder="DEIAALKAENAALKAENAALKAKIAALEG [4H733-AA]" quantitativereadout=-1.67
binder="DKNAALEAKIAALEAEIAALEAEIAALKG [4H3330-AA]" quantitativereadout=-1.98
binder="DELAAEEAKLAAIKAELAAIEAELAANEG [APC6108-AA]" quantitativereadout=-1.52
binder="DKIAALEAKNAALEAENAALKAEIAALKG [4H2458-AA]" quantitativereadout=-1.31
binder="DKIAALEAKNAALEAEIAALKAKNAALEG [4H2447-AA]" quantitativereadout=-1.5

Query :: Any idea what its interaction score is? The binder is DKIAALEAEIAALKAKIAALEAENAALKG [4H2148-AA]
Result :: -1.55

Query :: Then this binder: DELAAIEAEAAALEAKAAALKAEAAALEG [APC232-AA]
Result :: -1.68

Cited source for all entries: paper PMC10397247
